Values were extracted from patent US12606543B2.

- ASSAY_EXPLANATION: Plasma protein binding by equilibrium dialysis, mouse
- Format: in vitro ADME
- CONDITION_INFO: CD-1, mouse, plasma, mouse plasma, equilibrium dialysis, 37° C., 6 hours
OBSERVED_PROPERTY: recovery at 6 h, 1 µM (%)

> print(dat)
                                   compound      observed.property  recorded.value
1  CC(=O)N1CCN(c2ccc(OCC3COC(Cn4ccnc4)(c4ccc(Cl)cc4Cl)O3)cc2)CC1 (stereo not drawn) [Ketoconazole, reference compound]  recovery at 6 h, 1 µM            94.7
2  COCCN1CCC[C@@H]1Cc1c[nH]c2ccc(OC)cc12 [(R) I-98]  recovery at 6 h, 1 µM            96.4
3  [2H]C([2H])(c1c[nH]c2ccc(OCCCCN3C(=O)c4ccccc4C3=O)cc12)[C@H]1CCCN1C([2H])([2H])[2H] [(R) I-244]  recovery at 6 h, 1 µM            84.8
